target: CB2 receptor (Mus musculus); construct: membranes were prepared from frozen mouse spleen; from tissue; host or cells: mouse spleen; assay: biochemical; assay type: binding
Sequence (P47936 whole entry): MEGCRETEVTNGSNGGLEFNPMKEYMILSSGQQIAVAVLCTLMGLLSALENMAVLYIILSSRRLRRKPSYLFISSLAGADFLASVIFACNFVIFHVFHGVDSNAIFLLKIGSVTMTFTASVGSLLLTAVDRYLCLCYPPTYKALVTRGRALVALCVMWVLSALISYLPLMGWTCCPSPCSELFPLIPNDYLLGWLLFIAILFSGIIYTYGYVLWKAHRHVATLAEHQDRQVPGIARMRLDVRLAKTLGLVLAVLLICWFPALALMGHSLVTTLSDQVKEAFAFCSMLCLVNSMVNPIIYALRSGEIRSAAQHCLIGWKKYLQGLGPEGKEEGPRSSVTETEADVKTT
pKi: −log10 of the molar value.
assayMetric: pKi

| molSmiles | targetOfAssay | numericValue |
| --- | --- | --- |
| CC(=O)C1=NN(c2ccccc2)C(C(C)=O)=NN1c1ccccc1 | CB2 receptor (Mus musculus) | 5.00 |

###

Property: melting point; scope: individual compounds

| compound | melting point |
| --- | --- |
| CC(CO)NC(=O)C1=NN(c2ccccc2)C(C(=O)NC(C)CO)=NN1c1ccccc1 (stereo not shown) | 262 to 263 °C |
| COC(=O)C1=NN(c2ccccc2)C(C(=O)OC)=NN1c1ccccc1 | 171 to 172 °C |
| CCOC(=O)C1=NN(c2ccc(Br)cc2)C(C(=O)OCC)=NN1c1ccc(Cl)cc1 | 130 to 131 °C |
| CN(C)C(=O)C1=NN(c2ccccc2)C(C(N)=O)=NN1c1ccccc1 | 243 to 243.5 °C |
| CCOC(=O)C1=NN(C(=O)c2ccccc2)C(C(=O)OCC)=NN1C(=O)c1ccccc1 | 133.5 to 134 °C |
| CCOC(=O)c1nnc(C(=O)OCC)c2c1[nH]c1ccccc12 | 151 to 152 °C |
| CCN(CC)C(=O)C1=NN(c2ccccc2)C(C(N)=O)=NN1c1ccccc1 | 239 to 240 °C |
| CCCOC(=O)C1=NN(c2ccccc2)C(C(=O)OCCC)=NN1c1ccccc1 | 82.5 to 83 °C |
| CCOC(=O)C1=NN(C(=O)c2ccccc2I)C(C(=O)OCC)=NN1C(=O)c1ccccc1I | 186 to 187 °C |
| CCOC(=O)C1=NN(c2cccc3ccccc23)C(C(=O)OCC)=NN1c1cccc2ccccc12 | 129 to 130 °C |
